# assay_details: Pharmacokinetics of PEA after intravenous administration in male Sprague-Dawley rats
# Assay type: in vivo, Sprague-Dawley rat
# condition_info: male, Sprague-Dawley, rat, in vivo, iv, 1 mg/kg, Plasma concentration of PEA, Mean

{"compound": "CCCCCCCCCCCCCCCC(=O)NCCO [PEA, palmitoylethanolamide]", "units_text": "ng/mL", "concentration at 0.5 hr": 31.2}

---

# assay_details: Simulated intestinal fluid (SIF) stability in the presence of various enzymes
# Format: in vitro ADME
# condition_info: SIF + Carboxypeptidase A, 30 min, 1 μM
# % Remaining of Initial (n = 1) listing for each entry below

{"compound": "CCCCCCCCCCCCCCCC(=O)NCCOC(=O)CCC(=O)OCC(O)CO (stereo not shown) [Compound I-9]", "units_text": "%", "% Remaining of Initial (n = 1)": 15}
{"compound": "CCCCC/C=C\\C/C=C\\CCCCCCCC(=O)OCC(COC(=O)CCC(=O)OCCNC(=O)CCCCCCCCCCCCCCC)OC(=O)CCCCCCC/C=C\\C/C=C\\CCCCC (stereo not shown) [Compound I-13]", "units_text": "%", "% Remaining of Initial (n = 1)": 53}
{"compound": "CCCCC/C=C\\C/C=C\\CCCCCCCC(=O)OCCNC(=O)CCCCCCCCCCCCCCC [Compound I-6]", "units_text": "%", "% Remaining of Initial (n = 1)": 46}
{"compound": "CCCCCCCCCCCCCCCC(=O)NCCOC(=O)CCC(=O)OCC(COC(=O)CCC)OC(=O)CCC (stereo not shown) [Compound I-11]", "units_text": "%", "% Remaining of Initial (n = 1)": 78}
